Reference source for all entries: ChEMBL document CHEMBL4007459

Test: Apparent intrinsic clearance in human liver microsomes at 1 uM
Format: ADME, microsome
Conditions: read-out: CLH(app)
Property: microsomal CLint at 1 µM

Recall and state the measured microsomal CLint at 1 µM for `N#Cc1cc(F)cc(OCc2cccc3nc(N)nc(N)c23)c1` .
< 8.4 µL/min/mg

// Input: `Cc1ncccc1OCc1cccc2nc(N)nc(N)c12` . Output its microsomal CLint at 1 µM only.
< 8 µL/min/mg

Complete the entry with microsomal CLint at 1 µM for `Nc1nc(N)c2c(OCC3CCN(Cc4c(Cl)cccc4Cl)CC3)cccc2n1`
> 250 µL/min/mg

====

Test: Drug uptake in lymphoblasts (unknown origin) at 10 nM in presence of vacuolar type ATPase inhibitor bafilomycin measured after […]
Assay type: ADME, cell-based
Settings: lymphoblast, 0.01 µM
Property: Drug uptake

Nc1nc(N)c2c(OCC3CCN(Cc4ccccc4F)CC3)cccc2n1	Not Active
Cc1ncccc1OCc1cccc2nc(N)nc(N)c12	Not Active
Nc1nc(N)c2c(OCC3CCN(Cc4c(F)cccc4Cl)CC3)cccc2n1	Not Active
Nc1nc(N)c2c(OCC3CCN(Cc4c(Cl)cccc4Cl)CC3)cccc2n1	Not Active
